# study target: USP33 zf-UBP domain (human) (UniProt Q8TEY7)
# Sequence (Q8TEY7 whole entry, the tested form may be a part): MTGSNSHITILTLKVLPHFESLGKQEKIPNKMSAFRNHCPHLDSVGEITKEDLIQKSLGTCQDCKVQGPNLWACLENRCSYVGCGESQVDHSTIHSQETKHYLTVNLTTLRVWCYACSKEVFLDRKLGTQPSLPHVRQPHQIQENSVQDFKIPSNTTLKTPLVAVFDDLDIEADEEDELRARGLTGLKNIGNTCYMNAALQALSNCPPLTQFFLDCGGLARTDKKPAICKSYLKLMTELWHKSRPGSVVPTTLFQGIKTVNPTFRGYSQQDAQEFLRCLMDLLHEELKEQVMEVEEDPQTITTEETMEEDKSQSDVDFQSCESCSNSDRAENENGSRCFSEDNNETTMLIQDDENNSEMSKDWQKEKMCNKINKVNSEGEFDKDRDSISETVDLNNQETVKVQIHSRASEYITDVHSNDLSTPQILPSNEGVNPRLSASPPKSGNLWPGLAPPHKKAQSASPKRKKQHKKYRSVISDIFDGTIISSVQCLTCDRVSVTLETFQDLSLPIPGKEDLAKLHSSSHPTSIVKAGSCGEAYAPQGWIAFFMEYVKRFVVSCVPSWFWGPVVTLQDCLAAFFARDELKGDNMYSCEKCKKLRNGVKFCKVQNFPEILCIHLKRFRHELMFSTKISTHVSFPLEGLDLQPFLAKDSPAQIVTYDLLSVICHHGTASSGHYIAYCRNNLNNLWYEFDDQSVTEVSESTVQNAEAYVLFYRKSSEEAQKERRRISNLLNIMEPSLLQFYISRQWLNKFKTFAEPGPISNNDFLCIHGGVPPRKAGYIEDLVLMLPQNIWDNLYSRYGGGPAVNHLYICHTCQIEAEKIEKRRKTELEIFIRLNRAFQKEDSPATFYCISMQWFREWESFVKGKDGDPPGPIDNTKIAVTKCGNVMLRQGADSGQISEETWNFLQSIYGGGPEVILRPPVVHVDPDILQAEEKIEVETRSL
# test description: fluorescence polarisation; displacement: serial dilution of the unlabelled peptide against the domain (at two-fold the KD of the FITC-labelled peptide) in complex with 10 nM FITC-labelled peptide; 50 mM phosphate buffer pH 7.4; room temperature; three technical replicates; sigmoidal dose-response fit
outcome measure: Kd (µM)

- binder: "Ac-YPFQPGRMALESQSPG-NH2 [USP19 874-888 peptide]"
  Kd / µM: 40.6

[I] Ac-YLQPSSKASLESTSDL-NH2 [CEP192 2073-2087 peptide]
[II] Ac-YTNSSGKMALNSPQPG-NH2 [IRAG1 302-316 peptide]
// query Which record shows the lower Kd: the first, I , or the second, II ? Mark your answer with the label of the selected entry.
// result II
(II: 7.86 µM, I: 14.1 µM)
